Taken from the supplement of paper PMC7125110.

B1: glmS ribozyme (parent)
chain: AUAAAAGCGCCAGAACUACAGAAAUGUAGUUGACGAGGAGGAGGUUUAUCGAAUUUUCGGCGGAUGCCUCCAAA

# Variants of: B1
# assaySummary: self-cleavage kobs at 160 uM GlcN6P; higher = faster cleavage; RNA array
# conditionContext: with glucosamine-6-phosphate
Fewer inactive variants are shown than the library holds.
measureName: self-cleavage kobs at 160 uM GlcN6P

{"querySequence": "AUAAAAGCGCCAGAUCUACAGAAAUGUAGUUGACGAGGAGGUGGUUUAUCAAAUUUUCGGCGGAUGUCUCCAAA", "measureName": "self-cleavage kobs at 160 uM GlcN6P", "experimentalResult": "< 1e-05 s⁻¹"}
{"querySequence": "AUAAAACCGCCAGUACUACAGAAAUGUAGUUGACGAGGAGGAGGUUUAUCGAAUUUUCGGCGGAUGCCUCCAAA", "measureName": "self-cleavage kobs at 160 uM GlcN6P", "experimentalResult": "< 1e-05 s⁻¹"}
{"querySequence": "AUAAAAGCGCCAGAACUACAGAAAUGUAUUUGACGAGGGGGAGGUUUAUCGAAUUUUCUGCGGAUGUCUCCAAA", "measureName": "self-cleavage kobs at 160 uM GlcN6P", "experimentalResult": "< 1e-05 s⁻¹"}
{"querySequence": "AUAAAAGCGCCGGAACUACAGAAAUGUAGUUGACGAGGGGGAGGUUUAUCGAAUUUUCGGCGGAUGCCUCCAAA", "measureName": "self-cleavage kobs at 160 uM GlcN6P", "experimentalResult": "3.92e-05 s⁻¹"}
{"querySequence": "AUAAAAGCGCCAGAACUACAGAAAUGUAGUUGACGAGGAGGACGUUUAUCGAAUGGUCGGCGGAUGGCUCCAAA", "measureName": "self-cleavage kobs at 160 uM GlcN6P", "experimentalResult": "< 1e-05 s⁻¹"}
{"querySequence": "AUAAAAGCGCCAGAACUACAGAAAUGUAGUUGACGAGGAGGAGGUUUAUCGAAUUUUCGGGAGAUGUAUCCAAA", "measureName": "self-cleavage kobs at 160 uM GlcN6P", "experimentalResult": "0.000136 s⁻¹"}

Qu. Field request: self-cleavage kobs at 160 uM GlcN6P | item: AUAAAAGCGCCAGAUCUACAGAAAUGUAGUUGACGAGGAGGAGGUUUAUCGAAUUUUCGUUGGAUGCCUCCAAA
Ans. < 1e-05 s⁻¹

Qu. Which measured self-cleavage kobs at 160 uM GlcN6P value corresponds to AUAAAAGCGCCAGAACUACAGAAAUGUAGUUGACGAGGAGGAGGUUUAUCGAAUUUUCGGCGGAUGCCUGCAAA ?
Ans. 0.000401 s⁻¹

Qu. Could you share which self-cleavage kobs at 160 uM GlcN6P value was measured for AUAAAAGCGCCAGAACUACAGAAAUGUAGUGGACGAGGAGGAGGUUUAUCGAAUUUUCCGCGGAUGCCUCCAAA ?
Ans. < 1e-05 s⁻¹

Qu. Reported self-cleavage kobs at 160 uM GlcN6P, variant AUAAAAGCGCCAGAACUACAGAAAUGUAGUUGACGAGGAGGAGGCUUAUCGAAUUUUCGUCGGAUGCCUCCAAA : ____
Ans. < 1e-05 s⁻¹

Qu. Report self-cleavage kobs at 160 uM GlcN6P for AUAAAAGCGCCAGCACUACAGAAAUGUAGUUGACGGGGAGGAGGUGUAUCGAAUUUUCGGCGGAAGCCUCCAAA please.
Ans. < 1e-05 s⁻¹

Qu. Recorded self-cleavage kobs at 160 uM GlcN6P of AUAAAAGGGCCAGAACUACAGAAAUGUAGUUGACGAGGAGGAGGUUUAUCGAAUUUUCGGCGGAUGCCUCGAAA , please.
Ans. < 1e-05 s⁻¹

Qu. Fill in the blank: the reported self-cleavage kobs at 160 uM GlcN6P of AUAAAAGCGCCAGAACUACAGAAAUGUAGUUGACGAAGAGGAGGUUUACCGAAUUUUCGGCGGAUGCCUCCAAA is ____.
Ans. < 1e-05 s⁻¹

Qu. Please report the recorded self-cleavage kobs at 160 uM GlcN6P for AUAAAAGCGCCGGACCUACAGAAAUGUAGUUGACUAGGAGGAGGUUUAUCGAAUUUUCGGCGGAUGCCUCUAAA .
Ans. < 1e-05 s⁻¹

Qu. Look up self-cleavage kobs at 160 uM GlcN6P: AUAAAAGCGCCAGAACUACAGAAAUGUAGUUGACGAGGAGGAGGUUUAUCGAAUUUUCGGCGGAGGCCGCCAAA
Ans. 4.06e-05 s⁻¹

Qu. Item under review: AUAAAAGCGCCAGAAGUACAGAAAUGUAGUUGACGAGGAGGAGGUUUAUCGAAUCUUCGGCGGAUGCCUCCAAA . Reported self-cleavage kobs at 160 uM GlcN6P?
Ans. 0.000158 s⁻¹
